# target_desc: A II receptor (Bos taurus, UniProt P25104)
# Construct: An A II receptor membrane fraction was prepared from bovine adrenal cortex; from tissue; host or cells: bovine adrenal cortex membrane fraction
# Sequence (P25104 whole entry): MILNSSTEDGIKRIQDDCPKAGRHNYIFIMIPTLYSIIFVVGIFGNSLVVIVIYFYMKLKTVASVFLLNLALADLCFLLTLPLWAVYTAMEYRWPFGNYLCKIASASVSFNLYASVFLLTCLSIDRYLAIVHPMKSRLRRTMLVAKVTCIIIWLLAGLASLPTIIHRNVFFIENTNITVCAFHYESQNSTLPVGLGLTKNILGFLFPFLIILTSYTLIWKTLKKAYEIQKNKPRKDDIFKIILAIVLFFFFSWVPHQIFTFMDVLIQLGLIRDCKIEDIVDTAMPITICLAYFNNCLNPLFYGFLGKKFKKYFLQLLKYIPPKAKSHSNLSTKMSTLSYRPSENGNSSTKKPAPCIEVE
# experimental_details: Inhibition of binding of angiotensin II to angiotensin receptor (radioreceptor assay)
# Parameters: species or system bovine
# assay_conditions: 1 h; inhibition of 125I-A II binding; compound 1 × 10^−6M; bovine adrenal cortex membrane fraction
quantity_name: inhibition at 1 µM (%)
Record the value in %, omitting the unit from your answer.

The following molecules have reported results that may help.
1. CCCOc1nc2cccc(C(=O)O)c2n1Cc1ccc(-c2ccccc2-c2nnn[nH]2)cc1 : 79
2. COc1nc2cccc(C(=O)O)c2n1Cc1ccc(-c2ccccc2-c2nnn[nH]2)cc1 : 88

Query: State, for A II receptor (Bos taurus, UniProt P25104), measured inhibition at 1 µM of the molecule listed here: "COC(=O)c1cccc2nc(OC)n(Cc3ccc(-c4ccccc4-c4nnn[nH]4)cc3)c12"
Reply: 67

Query: Give inhibition at 1 µM for this entry on A II receptor (Bos taurus, UniProt P25104): "CCOC(=O)c1cccc2nc(SC)n(Cc3ccc(-c4ccccc4-c4nnn[nH]4)cc3)c12"
Reply: 26

Query: Supply inhibition at 1 µM measured with A II receptor (Bos taurus, UniProt P25104) for "CCCC(=O)OCOC(=O)c1cccc2nc(OCC)n(Cc3ccc(-c4ccccc4-c4nnn[nH]4)cc3)c12" .
Reply: 84

Query: Look up A II receptor (Bos taurus, UniProt P25104) data: inhibition at 1 µM of "CCOc1nc2cccc(C(=O)O)c2n1Cc1ccc(-c2ccccc2-c2nnn[nH]2)cc1" , then report it.
Reply: 91

Query: State inhibition at 1 µM on A II receptor (Bos taurus, UniProt P25104). Entry: CCOc1nc2cccc(C(=O)OC(C)OC(C)=O)c2n1Cc1ccc(-c2ccccc2-c2nnn[nH]2)cc1 (centres unmarked)
Reply: 91

Query: Give reported inhibition at 1 µM for "CCSc1nc2cccc(C(=O)O)c2n1Cc1ccc(-c2ccccc2-c2nnn[nH]2)cc1" (A II receptor (Bos taurus, UniProt P25104))
Reply: 80

Query: Under A II receptor (Bos taurus, UniProt P25104), report inhibition at 1 µM for "CCNc1nc2cccc(C(=O)OCOC(=O)C(C)(C)C)c2n1Cc1ccc(-c2ccccc2-c2nnn[nH]2)cc1"
Reply: 87

Query: Give inhibition at 1 µM for "CCOc1nc2cccc(C(=O)OCOC(=O)C3CCCCC3)c2n1Cc1ccc(-c2ccccc2-c2nnn[nH]2)cc1" tested on A II receptor (Bos taurus, UniProt P25104).
Reply: 84

Query: Send back A II receptor (Bos taurus, UniProt P25104) inhibition at 1 µM of "CCOC(=O)c1cccc2nc(SCC)n(Cc3ccc(-c4ccccc4-c4nnn[nH]4)cc3)c12" only.
Reply: 54

Query: Report value only: inhibition at 1 µM, A II receptor (Bos taurus, UniProt P25104), "CCCNc1nc2cccc(C(=O)OCC)c2n1Cc1ccc(-c2ccccc2-c2nnn[nH]2)cc1"
Reply: 57

---

# target_desc: A II receptor (Bos taurus)
# Construct: An A II receptor membrane fraction was prepared from bovine adrenal cortex; from tissue; host or cells: bovine adrenal cortex membrane fraction
# experimental_details: Inhibition of binding of angiotensin II to angiotensin receptor (radioreceptor assay)
# Set-up: species or system bovine
# assay_conditions: 1 h; read-out: Radioreceptor Assay 1 × 10^−7M
Assign Satisfied to entries whose inhibition at 0.1 µM meets or exceeds 50%; assign Not satisfied to the rest.

These recorded examples may help you get a feel for the data.
1. COC(=O)c1cccc2nc(OC)n(Cc3ccc(-c4ccccc4-c4nnn[nH]4)cc3)c12 : Not satisfied
2. CCOc1nc2cccc(C(=O)OCOC(C)=O)c2n1Cc1ccc(-c2ccccc2-c2nnn[nH]2)cc1 : Satisfied
3. CCOC(=O)c1cccc2nc(OCC)n(Cc3ccc(-c4ccccc4-c4nnn[nH]4)cc3)c12 : Not satisfied
4. CCNc1nc2cccc(C(=O)OCOC(=O)C(C)(C)C)c2n1Cc1ccc(-c2ccccc2-c2nnn[nH]2)cc1 : Not satisfied
5. CCOC(=O)c1cccc2nc(SCC)n(Cc3ccc(-c4ccccc4-c4nnn[nH]4)cc3)c12 : Not satisfied

Query: Does inhibition at 0.1 µM meet or surpass 50% for "CCOc1nc2cccc(C(=O)OCOC(=O)CC)c2n1Cc1ccc(-c2ccccc2-c2nnn[nH]2)cc1" ?
Reply: Not satisfied

Query: Is the recorded value of inhibition at 0.1 µM equal to or greater than 50% for this compound? "CCOC(=O)c1cccc2nc(SC)n(Cc3ccc(-c4ccccc4-c4nnn[nH]4)cc3)c12"
Reply: Not satisfied

Query: Quick check, inhibition at 0.1 µM >= 50%? "CCCNc1nc2cccc(C(=O)OCC)c2n1Cc1ccc(-c2ccccc2-c2nnn[nH]2)cc1"
Reply: Not satisfied

---

# target_desc: A II receptor (Bos taurus, UniProt P25104)
# Construct: An A II receptor membrane fraction was prepared from bovine adrenal cortex; from tissue; host or cells: bovine adrenal cortex membrane fraction
# experimental_details: Inhibition of binding of angiotensin II to angiotensin receptor (radioreceptor assay)
# Design: species or system bovine; unit not given here
# assay_conditions: inhibition of 125I-A II binding; compound 1 × 10^−6M; bovine adrenal cortex membrane fraction
# Procedure: An experiment of inhibition on the binding of angiotensin II (A II) to A II receptor was conducted by modifying the method of Douglas et al. [Endocrinology, 102, 685-696 (1978)]. An A II receptor membrane fraction was prepared from bovine adrenal cortex. The compound of the present invention (10 ^−6M or 10^−7M) and ^125I-angiotensin II (^125I-A II) (1.85 kBq/50 μl ) were added to the receptor membrane fraction, and the mixture was incubated at room temperature for one hour. […]
Decision: Radioreceptor Assay 1 × 10^−6M >= 80 yields rule met, all other cases yield rule not met.

1. CCNc1nc2cccc(C(=O)OC(C)OC(=O)OC3CCCCC3)c2n1Cc1ccc(-c2ccccc2-c2nnn[nH]2)cc1 (centres unmarked) : rule not met
2. CCOc1nc2cccc(C(=O)OC(C)OC(=O)OC3CCCCC3)c2n1Cc1ccc(-c2ccccc2-c2nnn[nH]2)cc1 (centres unmarked) : rule not met
3. CCOc1nc2cccc(C(=O)OCOC(=O)C(C)(C)C)c2n1Cc1ccc(-c2ccccc2-c2nnn[nH]2)cc1 : rule met

Please look at the following compound next.
Query: hey, is Radioreceptor Assay 1 × 10^−6M for this one >= 80? "CCNc1nc2cccc(C(=O)O)c2n1Cc1ccc(-c2ccccc2-c2nnn[nH]2)cc1"
Reply: rule met

---

# System: A II-induced pressor action
# experimental_details: Inhibitory effect on pressor action of A II after oral administration
# Type: in vivo, Jcl: SD rats
# assay_conditions: Rattus norvegicus, po; read-out: Pressor Response to A II (p.o.) 3 mg/kg
quantity_name: inhibition in vivo at 3 mg/kg

Below, each entry is followed by its recorded inhibition in vivo at 3 mg/kg result.
1) CCOc1nc2cccc(C(=O)OC)c2n1Cc1ccc(-c2ccccc2-c2nnn[nH]2)cc1 : ≥ 70%
2) CCOc1nc2cccc(C(=O)OCOC(=O)C3CCCC3)c2n1Cc1ccc(-c2ccccc2-c2nnn[nH]2)cc1 : ≥ 70%
3) CCOc1nc2cccc(C(=O)OCc3oc(=O)oc3C)c2n1Cc1ccc(-c2ccccc2-c2nnn[nH]2)cc1 : ≥ 70%
4) CCOC(=O)OC(C)OC(=O)c1cccc2nc(OCC)n(Cc3ccc(-c4ccccc4-c4nnn[nH]4)cc3)c12 (centres unmarked) : ≥ 70%

Query: Respond only with inhibition in vivo at 3 mg/kg recorded for "CCCOc1nc2cccc(C(=O)O)c2n1Cc1ccc(-c2ccccc2-c2nnn[nH]2)cc1"
Reply: ≥ 70%

Query: Using the record for "CCOC(=O)c1cccc2nc(SC)n(Cc3ccc(-c4ccccc4-c4nnn[nH]4)cc3)c12" , state its measured inhibition in vivo at 3 mg/kg.
Reply: 30 to 50%

Query: Specify reported inhibition in vivo at 3 mg/kg for the molecule shown: "CCCOc1nc2cccc(C(=O)OCC)c2n1Cc1ccc(-c2ccccc2-c2nnn[nH]2)cc1"
Reply: ≥ 70%

Query: Please give the documented inhibition in vivo at 3 mg/kg of "CCOc1nc2cccc(C(=O)OCOC(C)=O)c2n1Cc1ccc(-c2ccccc2-c2nnn[nH]2)cc1"
Reply: ≥ 70%

---

Entries and their measured melting point follow.

1. CCOc1nc2cccc(C(=O)OCOC(=O)CC)c2n1Cc1ccc(-c2ccccc2-c2nnn[nH]2)cc1 [Working Example 51] : 145 to 150 °C (dec.)
2. CCOc1nc2cccc(C(=O)OCOC(=O)C3CCCCC3)c2n1Cc1ccc(-c2ccccc2-c2nnn[nH]2)cc1 [Working Example 58] : 140 to 142 °C
3. CCOc1nc2cccc(C(=O)OCOC(=O)C3CCCC3)c2n1Cc1ccc(-c2ccccc2-c2nnn[nH]2)cc1 [Working Example 61] : 136 to 138 °C
4. CCOc1nc2cccc(C(=O)OCOC(C)=O)c2n1Cc1ccc(-c2ccccc2-c2nnn[nH]2)cc1 [Working Example 50] : 152 to 154 °C (dec.)
5. CCCC(=O)OCOC(=O)c1cccc2nc(OCC)n(Cc3ccc(-c4ccccc4-c4nnn[nH]4)cc3)c12 [Working Example 52] : 96 to 100 °C
6. CCOc1nc2cccc(C(=O)OC(C)OC(C)=O)c2n1Cc1ccc(-c2ccccc2-c2nnn[nH]2)cc1 (stereo not drawn) [Working Example 55] : 105 to 107 °C
7. CCOc1nc2cccc(C(=O)OCOC(=O)C(C)C)c2n1Cc1ccc(-c2ccccc2-c2nnn[nH]2)cc1 [Working Example 53] : 143 to 145 °C
8. CCNc1nc2cccc(C(=O)OCOC(=O)C(C)(C)C)c2n1Cc1ccc(-c2ccccc2-c2nnn[nH]2)cc1 [Working Example 62] : 130 to 135 °C

Kindly review the next compound as well.
Query: Using the record for CCOc1nc2cccc(C(=O)OC(C)OC(=O)OC(C)C)c2n1Cc1ccc(-c2ccccc2)c(-c2nnn[nH]2)c1 (stereo not drawn) [Working Example 56] , state its measured melting point.
Reply: 74 to 76 °C
